test system: MOLM-13; test: cells; conditions: Homo sapiens, MOLM-13, 72 h
Description: Antiproliferative activity against human MOLM-13 cells assessed as reduction in cell viability incubated for 72 hrs by CCK8 assay
Experimental Endpoint: pIC50
Please express pIC50 as -log10 of the molar concentration.

Below: 3 molecules and their reported pIC50.
The recorded pIC50 for entry "O=C(Nc1ccc(N2CCOCC2)cc1C(F)(F)F)c1cnn2ccc(N[C@H]3CN4CCC3CC4)nc12" equals 7.58

// sample "COc1cc(N2CCN(S(C)(=O)=O)CC2)ccc1NC(=O)c1cnn2ccc(N3CCC[C@@H](N)C3)nc12" , its pIC50 was 7.36

Quick note, pIC50 for "O=C(Nc1ccc(N2CCOCC2)cc1C(F)(F)F)c1cnn2ccc(N[C@@H]3CCNC3)nc12" landed at 7.79

More entries:
In plain terms, "O=C(Nc1ccc(N2CCOCC2)cc1Br)c1cnn2ccc(N[C@@H]3CCCNC3)nc12" has a documented pIC50 of 9.22

For reference, reported pIC50 for "CSc1cc(N2CCOCC2)ccc1NC(=O)c1cnn2ccc(N[C@@H]3CCCNC3)nc12" stands at 8.60

Lab note: "COc1cc(N2CCN(C(C)=O)CC2)ccc1NC(=O)c1cnn2ccc(N[C@@H]3CCCNC3)nc12" gave pIC50 of 7.76

Briefly, pIC50 measured for "O=C(Nc1ccc(N2CCOCC2)cc1C(F)(F)F)c1cnn2ccc(NC3CNC3)nc12" : 6.80
